Answer each item with its documented z-score.
assay: inhibitors of hydroxyurea-induced Chk1 phosphorylation, primary screen, imaging, HeLa, phospho-Chk1 nuclear intensity (AID 1187); details: hydroxyurea-induced phospho-Chk1 immunofluorescence imaging, higher = more signal; also: test concentration not given here
One number for each entry.

Some molecules with recorded z-score:
>>> observed_value("COc1ccc(C(=O)Nc2cccc(CN3C(=O)[C@]4(O[C@H](CCn5cc([C@H](O)c6ccccc6)nn5)[C@@H]([Si](C)(C)c5ccc(OC)cc5)[C@@H]4C)c4ccccc43)c2)cc1")
-0.0692
>>> observed_value("[N-]=[N+]=NCc1ccccc1[C@H]1OC(c2ccc(OCCCO)cc2)=N[C@@]1(CCS(=O)(=O)c1ccccc1)C(=O)NCc1ccccc1")
0.283
>>> observed_value("[N-]=[N+]=Nc1ccccc1[C@@H]1OC(c2ccc(OCCCO)cc2)=N[C@]1(Cc1ccccc1)C(=O)NCc1ccccc1")
0.433

State recorded z-score for all listed molecules.
1. COc1ccc([Si](C)(C)[C@H]2[C@H](CC(=O)N3Cc4ccccc4C[C@H]3CO)O[C@@]3(C(=O)N(Cc4ccc(N5C(=O)c6cccc7cccc5c67)cc4)c4ccccc43)[C@@H]2C)cc1
2. CCCNC(=O)[C@@]1(Sc2ccc(C)cc2)CC(=O)N(C(C)C)[C@@H]1c1ccc(CO)cc1I
3. Cc1ccc(S[C@]2(C(=O)NC(C)C)CC(=O)N(C(C)C)[C@@H]2c2ccc(CO)cc2I)cc1

**A:**
[-0.113, 0.197, 0.925]

---

Answer each item with its documented z-score.
test: modulators of HCV replicon luciferase signal, primary screen, HCV replication inhibitor project, Huh7 cells, luciferase reporter (AID 1109); conditions: 48 h, higher = more signal;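 also: huh7 hepatoma cells harbouring a luciferase neomycin HCV replicon reporter; luciferase luminescence as measure of HCV replicon replication; test concentration not given here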
One number for each entry.

State recorded z-score for all listed compounds.
1. CC(C)(C)OC(=O)CC[C@]1(C(=O)N2CCCCC2)COC(c2ccc(OCCCO)cc2)=N1
2. C=CCC(OC(C)=O)[C@@H]1[C@@H](N(Cc2cccc3ccccc23)C(=O)c2cccc3ccccc23)c2cc(OCCCO)ccc2N1C(=O)c1ccc2ccccc2c1 (stereo not given in full)
3. COc1cc(NN2C(C(O)C3CCCCC3)C=CC3C(=O)N(c4ccccc4)C(=O)C32)cc(OC)c1OC (stereo not given)
4. [N-]=[N+]=Nc1ccccc1C[C@]1(C(=O)NCc2ccccc2)COC(c2ccc(OCCCO)cc2)=N1

**A:**
1. -0.523
2. -0.351
3. -1.1
4. -3.22

State recorded z-score for all listed compounds.
1. CN1C(=O)C2C=CC(C(O)c3cc(C(F)(F)F)cc(C(F)(F)F)c3)N(NC(=O)OC(C)(C)C)C2C1=O (stereo not given)
2. [N-]=[N+]=Nc1ccccc1[C@@H]1OC(c2ccc(OCCCO)cc2)=N[C@]1(Cc1ccccc1)C(=O)NCc1ccccc1
3. CCOC(=O)C[C@H]1[C@H](OC(=O)c2ccccc2-c2ccccc2)[C@@H](NC(=O)c2ccc3ccccc3n2)c2cc(OCCCO)ccc2N1C(=O)c1ccccc1

**A:**
[-1.24, -2.53, -1.7]

State recorded z-score for all listed compounds.
1. O=C1OCCC=C[C@H]2OC34C=CCN(c5ccc(Cl)cc5)C(=O)[C@H]3N(CCCCCCO)C(=O)[C@@H]4C12 (stereo not given in full)
2. CN(C)CCCC[C@@H]1NC(=O)[C@@H]2C[C@H](C(=O)O)[C@H](c3cccc(OCCO)c3)N2C1=O
3. CCN(CC)c1ccc(N2CC=CC34O[C@@H]5/C=C\CCC(C)OC(=O)C5[C@H]3C(=O)N(C(C)CO)[C@@H]4C2=O)cc1 (stereo not given in full)
4. COCCOC(=O)N1C(=O)[C@@]2(c3cc(C#CCCO)ccc31)[C@H](c1ccccc1OCCO)N1[C@H](c3ccccc3)[C@H](c3ccccc3)OC(=O)[C@H]1[C@@H]2C(=O)N1CCCCCCC1
5. [N-]=[N+]=NCc1ccccc1[C@@H]1OC(c2ccc(OCCCO)cc2)=N[C@]1(Cc1ccccc1N=[N+]=[N-])C(=O)N1CCCCC1

**A:**
1. -0.476
2. -0.282
3. 0.0645
4. -2.25
5. -2.12

State recorded z-score for all listed compounds.
1. Cc1ccc(N2C(=O)c3ccccc3[C@](C)(C(=O)NCc3ccccc3)[C@@H]2c2ccc(CO)cc2)nc1
2. NCCCCCNC(=O)[C@@H]1C[C@@H]2C(=O)N3CCC[C@H]3C(=O)N2[C@@H]1c1ccc(O)cc1
3. CC(=O)NCCCC[C@@H]1NC(=O)[C@@H]2C[C@H](C(=O)NCCCCCCN)[C@H](c3cccc(OCCO)c3)N2C1=O

**A:**
1. 0.478
2. -0.837
3. -0.69
